Tested on: waterhemp (common waterhemp, Amaranthus rudis)
Experiment: Test E greenhouse herbicide test, pre- and postemergence
Type: in vivo
Details: 125 g ai/ha, Preemergence; scale 0 to 100 (0 no effect, 100 complete control)
READOUT_KIND: Plant response rating, Waterhemp
Form: value (number only, do not type unit).

The examples below pair each entry with its known result.
[[record]]
structure_notation = "COC(=O)Oc1c(C)nn(C)c(=O)c1-c1c(C)sc2ccc(C)cc12"
study_target = "waterhemp (common waterhemp, Amaranthus rudis)"
readout_kind = "Plant response rating, Waterhemp"
measurement = 100

[[record]]
structure_notation = "Cc1cc2ccccc2c(-c2c(O)c(C)nn(C)c2=O)c1C"
study_target = "waterhemp (common waterhemp, Amaranthus rudis)"
readout_kind = "Plant response rating, Waterhemp"
measurement = 100

[[record]]
structure_notation = "Cc1ccc2ccccc2c1-c1c(OC(=O)OC(C)C)c(C)nn(C)c1=O"
study_target = "waterhemp (common waterhemp, Amaranthus rudis)"
readout_kind = "Plant response rating, Waterhemp"
measurement = 100


Now for the compound whose Plant response rating, Waterhemp we want.
Inquiry: For Cn1nc(Br)c(O)c(-c2cccc3ccccc23)c1=O , what is its reported Plant response rating, Waterhemp?
Reply text: 85

----------
molecules and their reported Plant response rating, Kochia
Tested on: kochia (Kochia scoparia)
Experiment: Test D controlled growth environment herbicide test, pre- and postemergence
Type: in vivo
Conditions: Postemergence, 250 g ai/ha; scale 0 to 100 (0 no effect, 100 complete control)
Format: numeric value only, no unit, no commentary.

Inquiry: Query (molecule): CCc1sc2ccc(C)cc2c1-c1c(O)c(C)nn(C)c1=O ; field requested: Plant response rating, Kochia
Reply text: 100

Inquiry: Which Plant response rating, Kochia is reported for this molecule? Cc1cc(C)c2sc(C)c(-c3c(O)c(C)nn(C)c3=O)c2c1
Reply text: 70

Inquiry: Looking for the measured Plant response rating, Kochia of Cc1cc2ccccc2c(-c2c(O)c(C)nn(C)c2=O)c1C , can you help?
Reply text: 95

Inquiry: So what does the record say about Plant response rating, Kochia for CC(=O)Oc1c(C)nn(C)c(=O)c1-c1c(C)sc2ccc(Cl)cc12 ?
Reply text: 100

----------
System: johnsongrass (Sorghum halepense)
Test: Test C greenhouse herbicide test, pre- and postemergence
Format: in vivo
Conditions: Postemergence, 125 g ai/ha; scale 0 to 100, 0 is no effect, 100 is complete control
READOUT_KIND: Plant response rating, Johnsongrass

Study these solved cases before continuing.
[[record]]
molecule = "Cc1ccc2sc(Br)c(-c3c(O)c(C)nn(C)c3=O)c2c1 [Compound 79]"
study_target = "johnsongrass (Sorghum halepense)"
readout_kind = "Plant response rating, Johnsongrass"
measurement = 10

[[record]]
molecule = "Cc1nn(C)c(=O)c(-c2cccc3ccc(Br)cc23)c1O [Compound 126]"
study_target = "johnsongrass (Sorghum halepense)"
readout_kind = "Plant response rating, Johnsongrass"
measurement = 15

[[record]]
molecule = "CCc1oc2ccc(C)cc2c1-c1c(O)c(C)nn(C)c1=O [Compound 10]"
study_target = "johnsongrass (Sorghum halepense)"
readout_kind = "Plant response rating, Johnsongrass"
measurement = 5

[[record]]
molecule = "COC(=O)Oc1c(C)nn(C)c(=O)c1-c1c(C)sc2ccc(C)cc12 [Compound 80]"
study_target = "johnsongrass (Sorghum halepense)"
readout_kind = "Plant response rating, Johnsongrass"
measurement = 5


Inquiry: Fill in the blank: the reported Plant response rating, Johnsongrass of CCc1sc2ccc(C)cc2c1-c1c(O)c(C)nn(C)c1=O [Compound 47] is ____.
Reply text: 20
